Attribute: AUC(0-t)
assay: in vivo; conditions: Wistar, rat, iv, 10 ug/kg
Where no end group is shown, it is not given here. [ ]: non-standard residue; d: D form. The star is where a group is joined. Hexanoyl = CCCCCC(=O)*; Aib = CC(C)(N)C(=O)O

substance	readout_unit	AUC(0-t)
Hexanoyl-HSDAVFTDNYTRLR[Aib]QVAA[Aib]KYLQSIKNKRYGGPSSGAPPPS [Agonist P261]	nM·h	0.898
Hexanoyl-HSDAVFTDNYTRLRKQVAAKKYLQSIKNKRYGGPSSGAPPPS [Agonist P31]	nM·h	0.308
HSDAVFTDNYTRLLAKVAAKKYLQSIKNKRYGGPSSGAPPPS [Agonist P89]	nM·h	0.523
Hexanoyl-HSDAVFTDNYTRLR[Aib]QVAAK[Aib]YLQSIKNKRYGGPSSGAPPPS [Agonist P264]	nM·h	0.06
